- Tested System: OsWOX13 (Oryza sativa, UniProt Q5QMM3 1-267)
- Sequence: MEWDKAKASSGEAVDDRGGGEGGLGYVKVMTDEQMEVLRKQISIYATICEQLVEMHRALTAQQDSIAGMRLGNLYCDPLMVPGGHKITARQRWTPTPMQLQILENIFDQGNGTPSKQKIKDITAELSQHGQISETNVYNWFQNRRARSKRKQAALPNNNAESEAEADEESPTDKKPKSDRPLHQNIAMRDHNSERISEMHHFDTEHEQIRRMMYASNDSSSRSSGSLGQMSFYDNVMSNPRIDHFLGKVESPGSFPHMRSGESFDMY
- Measurement Protocol: protein-binding microarray (RPBM); PBS, 2% BSA, 51.3 ng/ul salmon testes DNA, 50 uM zinc acetate, 200 nM TF, 25 C, 1 h; high values mean tight binding
- Details: protein: recombinant; tags: N-terminal polyhistidine and DsRed monomer fusion (pET32a); label: CyDye5-dUTP incorporated in the synthesized complementary strand; 3' TTTTT single-stranded linker to array surface; dsDNA, one strand shown
In all, about 35,000 sequences were measured (“fluorescence intensity (a.u.)”: median about 10,000, highest 2% from about 52,000 on). This is one part of a sample in which the highest values are shown more often than they occur.
Attribute Measured: binding signal

Example entries begin here.
Q: With OsWOX13 (Oryza sativa, UniProt Q5QMM3 1-267) as the test system, provide measured binding signal for this sequence: CACTTGATTAATTTATCCTCTCCTCGCGTCGCTGTCGCGTCGGAGTCACCTAGTGCAG
Result: 52700 fluorescence intensity (a.u.)

Q: Look up and report measured binding signal (OsWOX13 (Oryza sativa, UniProt Q5QMM3 1-267)) for the following sequence: GTTAATTGATTAGCAAAAGGTACTATACATATATTCTTTTCGGAGTCACCTAGTGCAG
Result: 33800 fluorescence intensity (a.u.)

Q: Jot down binding signal (OsWOX13 (Oryza sativa, UniProt Q5QMM3 1-267)) of GCCTAATTGCTTAATTAGCAGCCAACGGATTCGATTGATCCGGAGTCACCTAGTGCAG .
Result: 53900 fluorescence intensity (a.u.)

Continuing:
Q: Write down the reported binding signal (system: OsWOX13 (Oryza sativa, UniProt Q5QMM3 1-267)) of GCTGTTTGATCCATAATTTATCCGCGCGTCGTCACTCCGACGGAGTCACCTAGTGCAG
Result: 5840 fluorescence intensity (a.u.)

Q: Determine reported binding signal for GAATAACAGACATATCATATTTGTTGCCTCCTGGTGGCTACGGAGTCACCTAGTGCAG ; test system: OsWOX13 (Oryza sativa, UniProt Q5QMM3 1-267).
Result: 7840 fluorescence intensity (a.u.)

Q: Answer briefly: binding signal recorded on OsWOX13 (Oryza sativa, UniProt Q5QMM3 1-267) for AACAGTTCTGCTGAACCTCTTTTGCCTGCCCAAATCAAAACGGAGTCACCTAGTGCAG
Result: 7650 fluorescence intensity (a.u.)

====

A collection of sequences and their measured binding signal
- Tested System: OsWOX13 (Oryza sativa, UniProt Q5QMM3 1-267)
- Sequence: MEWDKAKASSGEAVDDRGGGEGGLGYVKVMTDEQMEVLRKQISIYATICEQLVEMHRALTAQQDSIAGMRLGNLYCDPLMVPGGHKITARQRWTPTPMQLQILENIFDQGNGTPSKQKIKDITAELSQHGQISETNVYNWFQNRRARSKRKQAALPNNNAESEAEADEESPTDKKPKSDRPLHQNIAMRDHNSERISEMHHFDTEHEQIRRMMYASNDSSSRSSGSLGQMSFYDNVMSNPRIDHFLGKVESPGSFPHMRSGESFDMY
- Measurement Protocol: protein-binding microarray (RPBM); PBS, 2% BSA, 51.3 ng/ul salmon testes DNA, 50 uM zinc acetate, 200 nM TF, 25 C, 1 h; high values mean tight binding
- Details: protein: recombinant; tags: N-terminal polyhistidine and DsRed monomer fusion (pET32a); label: CyDye5-dUTP incorporated in the synthesized complementary strand; 3' TTTTT single-stranded linker to array surface; dsDNA, one strand shown
The full ranking holds about 35,000 sequences; the median of “fluorescence intensity (a.u.)” is about 10,000, and the highest 2% start at about 52,000. This is one part of a sample in which the highest values are shown more often than they occur.

Q: Answer with reported binding signal of AACACCATACCAAAATCCAAATATACTTATATTTTACTTACGGAGTCACCTAGTGCAG
Result: 65000 fluorescence intensity (a.u.)

Q: Give me measured binding signal, please, for this sequence: CTAATGACGAATTAATTAGAATTAATAGATTTATCTTGCACGGAGTCACCTAGTGCAG
Result: 53300 fluorescence intensity (a.u.)

Q: Consider the sequence ACAAATTGAGTGTTATAGTGAGATGGCATCGGAGATGAGCCGGAGTCACCTAGTGCAG . State its measured binding signal.
Result: 32400 fluorescence intensity (a.u.)

Q: In one line, give reported binding signal of the entry CAGTGGATGATTAATATTGATTAATTATTATAATTGTTTTCGGAGTCACCTAGTGCAG .
Result: 39500 fluorescence intensity (a.u.)

***
Q: Recall and state the measured binding signal for CGTCTACCGTGATTGTTTCGATACAATTGTGTGCAAGTTACGGAGTCACCTAGTGCAG .
Result: 21200 fluorescence intensity (a.u.)

Q: Look up and state reported binding signal for TTATTAATTATCATATTAGTAGTAGTAGTAGTAGCTAGGCCGGAGTCACCTAGTGCAG
Result: 34100 fluorescence intensity (a.u.)

Q: Look up and report measured binding signal for this entry: TATAGTGCAGATTTTGAAATTGATGAGTGCACGTTTGGGCCGGAGTCACCTAGTGCAG
Result: 6560 fluorescence intensity (a.u.)

Q: Identify measured binding signal corresponding to ATATAATTAAATGATTAATTAATTAGTACCGTTTTACTTGCGGAGTCACCTAGTGCAG
Result: 65500 fluorescence intensity (a.u.)

Q: Provide binding signal value for the following sequence: GTTTAATGATAAATCTAGTAATATTAATTTTACATGATTGCGGAGTCACCTAGTGCAG
Result: 25600 fluorescence intensity (a.u.)
